B1: TPR t1 (parent)
chain: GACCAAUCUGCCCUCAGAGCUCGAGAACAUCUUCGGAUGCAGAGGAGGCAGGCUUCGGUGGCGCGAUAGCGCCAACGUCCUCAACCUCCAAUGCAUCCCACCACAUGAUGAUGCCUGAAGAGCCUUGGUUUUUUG

variants of: B1; test: polymerase ribozyme fitness, log enrichment relative to wild type (log ratio); higher = more active; in vitro selection for triplet polymerase activity
Readings of polymerase ribozyme fitness (log ratio) for the listed variants
Just the number, please.

Some solved entries appear below for comparison.
VARIANT_ID | polymerase ribozyme fitness (log ratio)
A5U C70G | -2.83
C3U U78C A105U G120C | -1.99
C62U U116A G128A | -5.25
G25A A66U C70G G110C | -6.93

// query Which polymerase ribozyme fitness (log ratio) is reported for this variant? U21G G36C C72G
// result -2.78

// query Consider the variant G48U A105U and give its measured polymerase ribozyme fitness (log ratio).
// result -2.27

// query Quick one: polymerase ribozyme fitness (log ratio) of G47U C64U U67C ?
// result -7.12

// query Which polymerase ribozyme fitness (log ratio) reading was recorded for the variant G69U U78C C102U ?
// result 0.0221

// query # lookup: polymerase ribozyme fitness (log ratio) of A46C C64A G69C C94A
// result -2.85

// query Bench note: what polymerase ribozyme fitness (log ratio) did C20G C40A C70U U92A G93A G113C show?
// result -6.62

// query polymerase ribozyme fitness (log ratio) value for entry G44A C102U
// result -4.04

// query Report polymerase ribozyme fitness (log ratio) for C94U C102U U126C please.
// result -2.66

// query Fill in: polymerase ribozyme fitness (log ratio) of C97A C102U is ___
// result -4.94

// query Recorded polymerase ribozyme fitness (log ratio) for A66G C97U U112G , please?
// result -2.06

// query Could you tell me which polymerase ribozyme fitness (log ratio) is on file for U9G G69C ?
// result -2.16
